run.parameters: buffer; pH 7.4; 200.0 µM
Exercise: for every item that follows, state its recorded solubility kinetic.

Here are 3 molecules together with their reported answers.
INSERT INTO assay_data (molecule, assay_value) VALUES
  ('COc1ccccc1CNC(=O)Cc1c[nH]c2ccccc12', '> 44.2 µg/mL'),
  ('O=C(Nc1cccnc1)c1ccc(CSc2ccccc2)cc1', '< 0.3 µg/mL'),
  ('Cn1ncc2c(NCc3ccccc3)nc(NCCCO)nc21', '> 46.9 µg/mL');

For each of the molecules below, state solubility kinetic.
1. Cc1cccc(C)c1NC(=S)N/N=C/c1ccc(C(=O)O)cc1
2. CCOC(=O)N1CCN(C(=O)c2ccc(OC)cc2)CC1
3. CSc1nc(C)[nH]c(=O)c1C#N
4. C=CCNC(=O)CN1CCC(c2nc3cc(C)c(C)cc3[nH]2)CC1

["> 49.1 µg/mL", "> 43.9 µg/mL", "> 27.2 µg/mL", "> 49 µg/mL"]

Hello, I would appreciate it if you could give solubility kinetic for each entry below.
1. CC12CCC(C(=O)NC3CCCCC3)([C@H](Br)C1=O)C2(C)C (some centres undefined)
2. O=C(O)CC(NCc1ccco1)C(=O)OCCCl (centres undefined)

["> 53.4 µg/mL", "> 41.4 µg/mL"]
